Would you mind telling me the reported TGI of each entry?
# Tested on: CAKI-1 renal
# Method Summary: NCI tumour cell line growth inhibition, 48 h

{"Compound": "Fc1cccc(C2SCC3=Nc4ccccc4CN32)c1 (configuration not stated)", "TGI": "> 100 µM"}

Below are some compounds; for each one, tell me its TGI.
1. O=C(NC(O)(C(F)(F)F)C(F)(F)F)c1ccccc1
2. CCCCC(=O)OC[n+]1ccc(-c2c(COC(=O)NC(C)C)c(COC(=O)NC(C)C)c3n2CCC3)cc1
3. COc1cc2cnc3c(c2c(OC)c1OC)Cc1cc2c(cc1-3)OCO2
4. COc1ccc(C2SC(N)=Nc3c2c(C)nn3C(=O)Cc2ccccc2)cc1 (configuration not stated)
5. COC(=O)[C@@]12CN(C)[C@@H](C(C)(C)C)N1C(=O)OC2c1ccccc1 (some centres not stated)
6. Nc1nc2cc(O)ccc2n2cc3c(F)cccc3c12

# output
["> 100 µM", "> 100 µM", "1.76 µM", "> 100 µM", "> 100 µM", "> 93.1 µM"]
